For each of the binders below, state its PRNT90.
- Target Of Assay: West Nile virus strain USA99b (strain 385-99), whole virus (West Nile virus strain 385-99 (USA99b))
- Assay Notes: cell-based or functional assay
// note: answer is a bare numeric in µg/mL

So what's the measured PRNT90 for this one? CR5074 (antibody, V domains shown) VH: QITLKESGPTLVKPTQTLTLTCTFSGFSLSTSGVGVGWIRQPPGKALEWLAVIYWNDDKLYRPSLKSRLTITKDTSKNQVVLTMTKMDPVDTATYYCAHRHRYYDISGYYRLFSDAFDIWGQGTMVTVSS VL: QSVLTQPPSVSGAPGQRVTISCTGSSSNIGTGYDVHWYQQLPGTAPKLLIYADTNRPSGVPDRFSGSKSGTSASLAITGVQAEDEADYYCQSYDTSLTGWVFGGGTKVTVLG
0.067

So what's the measured PRNT90 for this one? CR4374 (antibody, V domains shown) VH: QITLKESGPTLVKPTQTLTLTCTFSGFSLSTSGVGVGWIRQPPGKALEWLAVIYWNDDKLYRPSLKSRLTITKDTSKNQVVLTMTKMDPVDTATYYCAHRHRYYDISGYYRLFSDAFDIWGQGTMVTVSS VL: QSVLTQPPSVSGAPGQRVTISCTGSSSNIGAGYDVHWYQQLPGTAPKLLIYGNSNRPSGVPDRFSGSKSGTSASLAITGLQAEDEADYYCQSYDSSLSGSVFGGGTKLTVLG
0.95
